molecular target: rat AT1aR (Rattus norvegicus); experiment: beta-arrestin2 recruitment assay (PathHunter), rat AT1aR; format: cell-based; settings: 1 h, read-out: Span (relative to hAngII)
Where a SMILES comes first, the peptide text is derived from it. [ ]: non-standard residue; d: D form. Ac6c = NC1(C(=O)O)CCCCC1; Ac5c = NC1(C(=O)O)CCCC1; Sar = CNCC(=O)O

compound	targetOfAssay	Emax
CNCC(=O)N[C@@H](CCCNC(=N)N)C(=O)N[C@H](C(=O)N[C@@H](Cc1ccc(O)cc1)C(=O)NC1(C(=O)N[C@@H](Cc2c[nH]cn2)C(=O)N2CCC[C@H]2C(=O)N2CCC[C@H]2C(=O)O)CCCCC1)C(C)C [SEQ ID NO: 39, Sar-Arg-Val-Tyr-cyHex-His-Pro-Pro] (H-[Sar]RVY[Ac6c]HPP-OH)	rat AT1aR (Rattus norvegicus)	< 105%
CNCC(=O)N[C@@H](CCCNC(=N)N)C(=O)N[C@H](C(=O)N[C@@H](Cc1ccc(O)cc1)C(=O)NC1(C(=O)N[C@@H](Cc2c[nH]cn2)C(=O)N2CCC[C@H]2C(=O)N[C@H](C(=O)O)C(C)C)CCCCC1)C(C)C [SEQ ID NO: 13, Sar-Arg-Val-Tyr-cyHex-His-Pro-Val] (H-[Sar]RVY[Ac6c]HPV-OH)	rat AT1aR (Rattus norvegicus)	< 105%
CC[C@H](C)[C@H](NC(=O)[C@@H]1CCCN1C(=O)[C@H](Cc1c[nH]cn1)NC(=O)C1(NC(=O)[C@H](Cc2ccc(O)cc2)NC(=O)[C@@H](NC(=O)[C@H](CCCNC(=N)N)NC(=O)CNC)C(C)C)CCCC1)C(=O)O [SEQ ID NO: 18, Sar-Arg-Val-Tyr-cyPen-His-Pro-Ile] (H-[Sar]RVY[Ac5c]HPI-OH)	rat AT1aR (Rattus norvegicus)	< 105%
CNCC(=O)N[C@@H](CCCNC(=N)N)C(=O)N[C@H](C(=O)N[C@@H](Cc1ccc(O)cc1)C(=O)NC1(C(=O)N[C@@H](Cc2c[nH]cn2)C(=O)N2CCC[C@H]2C(=O)N[C@@H](Cc2c[nH]cn2)C(=O)O)CCCCC1)C(C)C [SEQ ID NO: 37, Sar-Arg-Val-Tyr-cyHex-His-Pro-His] (H-[Sar]RVY[Ac6c]HPH-OH)	rat AT1aR (Rattus norvegicus)	< 105%
CNCC(=O)N[C@@H](CCCNC(=N)N)C(=O)N[C@H](C(=O)N[C@@H](Cc1ccc(O)cc1)C(=O)NC1(C(=O)N[C@@H](Cc2c[nH]cn2)C(=O)N2CCC[C@H]2C(=O)N[C@H](C(=O)O)[C@@H](C)O)CCCC1)C(C)C [SEQ ID NO: 21, Sar-Arg-Val-Tyr-cyPen-His-Pro-Thr] (H-[Sar]RVY[Ac5c]HPT-OH)	rat AT1aR (Rattus norvegicus)	< 105%
CNCC(=O)N[C@@H](CCCNC(=N)N)C(=O)N[C@H](C(=O)N[C@@H](Cc1ccc(O)cc1)C(=O)NC1(C(=O)N[C@@H](Cc2c[nH]cn2)C(=O)N2CCC[C@H]2C(=O)N[C@@H](CCCCN)C(=O)O)CCCCC1)C(C)C [SEQ ID NO: 50, Sar-Arg-Val-Tyr-cyHex-His-Pro-Lys] (H-[Sar]RVY[Ac6c]HPK-OH)	rat AT1aR (Rattus norvegicus)	< 105%
CNCC(=O)N[C@@H](CCCNC(=N)N)C(=O)N[C@H](C(=O)N[C@@H](Cc1ccc(O)cc1)C(=O)N1CCC[C@H]1C(=O)N[C@@H](Cc1c[nH]cn1)C(=O)N1CCC[C@H]1C(=O)N[C@@H](C)C(=O)O)C(C)C [SEQ ID NO: 1, Sar-Arg-Val-Tyr-Pro-His-Pro-Ala] (H-[Sar]RVYPHPA-OH)	rat AT1aR (Rattus norvegicus)	< 105%
CNCC(=O)N[C@@H](CCCNC(=N)N)C(=O)N[C@H](C(=O)N[C@@H](Cc1ccc(O)cc1)C(=O)NC1(C(=O)N[C@@H](Cc2c[nH]cn2)C(=O)N2CCC[C@H]2C(=O)N[C@@H](Cc2ccccc2)C(=O)O)CCCCC1)C(C)C [SEQ ID NO: 17, Sar-Arg-Val-Tyr-cyHex-His-Pro-Phe] (H-[Sar]RVY[Ac6c]HPF-OH; N-terminus and C-terminus assumed)	rat AT1aR (Rattus norvegicus)	< 105%
CNCC(=O)N[C@@H](CCCNC(=N)N)C(=O)N[C@H](C(=O)N[C@@H](Cc1ccc(O)cc1)C(=O)NC1(C(=O)N[C@@H](Cc2c[nH]cn2)C(=O)N2CCC[C@H]2C(=O)N[C@@H](CCC(=O)O)C(=O)O)CCCCC1)C(C)C [SEQ ID NO: 43, Sar-Arg-Val-Tyr-cyHex-His-Pro-Glu] (H-[Sar]RVY[Ac6c]HPE-OH)	rat AT1aR (Rattus norvegicus)	< 105%
CNCC(=O)N[C@@H](CCCNC(=N)N)C(=O)N[C@H](C(=O)N[C@@H](Cc1ccc(O)cc1)C(=O)NC1(C(=O)N[C@@H](Cc2c[nH]cn2)C(=O)N2CCC[C@H]2C(=O)N[C@@H](Cc2ccc(O)cc2)C(=O)O)CCCCC1)C(C)C [SEQ ID NO: 55, Sar-Arg-Val-Tyr-cyHex-His-Pro-Tyr] (H-[Sar]RVY[Ac6c]HPY-OH)	rat AT1aR (Rattus norvegicus)	< 105%
CNCC(=O)N[C@@H](CCCNC(=N)N)C(=O)N[C@H](C(=O)N[C@@H](Cc1ccc(O)cc1)C(=O)N1CCC[C@H]1C(=O)N[C@@H](Cc1c[nH]cn1)C(=O)N1CCC[C@H]1C(=O)N[C@H](C(=O)O)C(C)C)C(C)C [SEQ ID NO: 6, Sar-Arg-Val-Tyr-Pro-His-Pro-Val] (H-[Sar]RVYPHPV-OH; N-terminus and C-terminus assumed)	rat AT1aR (Rattus norvegicus)	< 105%
CNCC(=O)N[C@@H](CCCNC(=N)N)C(=O)N[C@H](C(=O)N[C@@H](Cc1ccc(O)cc1)C(=O)NC1(C(=O)N[C@@H](Cc2c[nH]cn2)C(=O)N2CCC[C@H]2C(=O)N[C@@H](CCSC)C(=O)O)CCCCC1)C(C)C [SEQ ID NO: 16, Sar-Arg-Val-Tyr-cyHex-His-Pro-Met] (H-[Sar]RVY[Ac6c]HPM-OH)	rat AT1aR (Rattus norvegicus)	< 105%

----------
The entries below come with measured Emax values attached.
biological target: rat AT1aR (Rattus norvegicus, UniProt P25095); assay: beta-arrestin2 recruitment assay (PathHunter), rat AT1aR; type: cell-based; details: 1 h, read-out: Span (relative to hAngII)
Sequence (P25095 whole entry): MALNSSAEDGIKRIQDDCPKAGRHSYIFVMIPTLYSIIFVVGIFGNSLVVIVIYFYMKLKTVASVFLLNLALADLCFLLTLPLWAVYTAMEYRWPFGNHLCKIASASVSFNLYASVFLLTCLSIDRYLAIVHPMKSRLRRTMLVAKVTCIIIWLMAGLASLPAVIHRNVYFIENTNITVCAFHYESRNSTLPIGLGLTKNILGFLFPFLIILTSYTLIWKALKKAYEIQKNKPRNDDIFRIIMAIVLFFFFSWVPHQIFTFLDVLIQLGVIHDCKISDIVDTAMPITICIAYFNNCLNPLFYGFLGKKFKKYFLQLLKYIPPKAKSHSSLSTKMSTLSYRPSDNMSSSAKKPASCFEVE
Where a SMILES comes first, the peptide text is derived from it. [ ]: non-standard residue; d: D form. Ac6c = NC1(C(=O)O)CCCCC1; Sar = CNCC(=O)O
recordedMetric: Emax

compound	targetOfAssay	result
CNCC(=O)N[C@@H](CCCNC(=N)N)C(=O)N[C@H](C(=O)N[C@@H](Cc1ccc(O)cc1)C(=O)NC1(C(=O)N[C@@H](Cc2c[nH]cn2)C(=O)N2CCC[C@H]2C(=O)NCC(=O)O)CCCCC1)C(C)C [SEQ ID NO: 32, Sar-Arg-Val-Tyr-cyHex-His-Pro-Gly] (H-[Sar]RVY[Ac6c]HPG-OH)	rat AT1aR (Rattus norvegicus, UniProt P25095)	< 105%
CNCC(=O)N[C@@H](CCCNC(=N)N)C(=O)N[C@H](C(=O)N[C@@H](Cc1ccc(O)cc1)C(=O)NC1(C(=O)N[C@@H](Cc2c[nH]cn2)C(=O)N2CCC[C@H]2C(=O)NC)CCCCC1)C(C)C [SEQ ID NO: 49, Sar-Arg-Val-Tyr-cyHex-His-Pro-NH-methyl] (H-[Sar]RVY[Ac6c]HP-NHMe)	rat AT1aR (Rattus norvegicus, UniProt P25095)	< 105%
CNCC(=O)N[C@@H](CCCNC(=N)N)C(=O)N[C@H](C(=O)N[C@@H](Cc1ccc(O)cc1)C(=O)N1CCC[C@H]1C(=O)N[C@@H](Cc1c[nH]cn1)C(=O)N1CCC[C@H]1C(=O)N[C@H](C(=O)O)[C@@H](C)O)C(C)C [SEQ ID NO: 7, Sar-Arg-Val-Tyr-Pro-His-Pro-Thr] (H-[Sar]RVYPHPT-OH)	rat AT1aR (Rattus norvegicus, UniProt P25095)	< 105%

----------
target: human AT1R (Homo sapiens); assay: beta-arrestin2 recruitment assay (PathHunter), human AT1R; format: cell-based; settings: read-out: EC50
Sequence (P30556 whole entry): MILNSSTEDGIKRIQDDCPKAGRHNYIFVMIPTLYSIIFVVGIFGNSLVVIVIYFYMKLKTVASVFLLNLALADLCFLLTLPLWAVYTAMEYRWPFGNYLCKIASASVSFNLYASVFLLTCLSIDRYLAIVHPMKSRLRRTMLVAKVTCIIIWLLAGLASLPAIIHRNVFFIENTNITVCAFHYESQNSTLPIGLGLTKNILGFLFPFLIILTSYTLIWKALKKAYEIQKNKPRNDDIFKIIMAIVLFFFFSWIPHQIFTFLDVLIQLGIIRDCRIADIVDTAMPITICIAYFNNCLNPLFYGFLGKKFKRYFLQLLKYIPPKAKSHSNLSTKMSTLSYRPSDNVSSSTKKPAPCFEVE
Where a SMILES comes first, the peptide text is derived from it. [ ]: non-standard residue; d: D form. Ac6c = NC1(C(=O)O)CCCCC1; Sar = CNCC(=O)O

molecule	EC50
CNCC(=O)N[C@@H](CCCNC(=N)N)C(=O)N[C@H](C(=O)N[C@@H](Cc1ccc(O)cc1)C(=O)NC1(C(=O)N[C@@H](Cc2c[nH]cn2)C(=O)N2CCC[C@H]2C(=O)N[C@@H](Cc2ccccc2)C(=O)O)CCCCC1)C(C)C [SEQ ID NO: 17, Sar-Arg-Val-Tyr-cyHex-His-Pro-Phe] (H-[Sar]RVY[Ac6c]HPF-OH; N-terminus and C-terminus assumed)	> 3.2 nM
CNCC(=O)N[C@@H](CCCNC(=N)N)C(=O)N[C@H](C(=O)N[C@@H](Cc1ccc(O)cc1)C(=O)NC1(C(=O)N[C@@H](Cc2c[nH]cn2)C(=O)N2CCC[C@H]2C(=O)N[C@@H](CCSC)C(=O)O)CCCCC1)C(C)C [SEQ ID NO: 16, Sar-Arg-Val-Tyr-cyHex-His-Pro-Met] (H-[Sar]RVY[Ac6c]HPM-OH)	> 3.2 nM
CNCC(=O)N[C@@H](CCCNC(=N)N)C(=O)N[C@H](C(=O)N[C@@H](Cc1ccc(O)cc1)C(=O)NC1(C(=O)N[C@@H](Cc2c[nH]cn2)C(=O)N2CCC[C@H]2C(=O)NC)CCCCC1)C(C)C [SEQ ID NO: 49, Sar-Arg-Val-Tyr-cyHex-His-Pro-NH-methyl] (H-[Sar]RVY[Ac6c]HP-NHMe)	> 3.2 nM
